- TARGET: Rap guanine nucleotide exchange factor 4 (Homo sapiens) (UniProt Q8WZA2)
- Sequence (Q8WZA2 whole entry, looked up): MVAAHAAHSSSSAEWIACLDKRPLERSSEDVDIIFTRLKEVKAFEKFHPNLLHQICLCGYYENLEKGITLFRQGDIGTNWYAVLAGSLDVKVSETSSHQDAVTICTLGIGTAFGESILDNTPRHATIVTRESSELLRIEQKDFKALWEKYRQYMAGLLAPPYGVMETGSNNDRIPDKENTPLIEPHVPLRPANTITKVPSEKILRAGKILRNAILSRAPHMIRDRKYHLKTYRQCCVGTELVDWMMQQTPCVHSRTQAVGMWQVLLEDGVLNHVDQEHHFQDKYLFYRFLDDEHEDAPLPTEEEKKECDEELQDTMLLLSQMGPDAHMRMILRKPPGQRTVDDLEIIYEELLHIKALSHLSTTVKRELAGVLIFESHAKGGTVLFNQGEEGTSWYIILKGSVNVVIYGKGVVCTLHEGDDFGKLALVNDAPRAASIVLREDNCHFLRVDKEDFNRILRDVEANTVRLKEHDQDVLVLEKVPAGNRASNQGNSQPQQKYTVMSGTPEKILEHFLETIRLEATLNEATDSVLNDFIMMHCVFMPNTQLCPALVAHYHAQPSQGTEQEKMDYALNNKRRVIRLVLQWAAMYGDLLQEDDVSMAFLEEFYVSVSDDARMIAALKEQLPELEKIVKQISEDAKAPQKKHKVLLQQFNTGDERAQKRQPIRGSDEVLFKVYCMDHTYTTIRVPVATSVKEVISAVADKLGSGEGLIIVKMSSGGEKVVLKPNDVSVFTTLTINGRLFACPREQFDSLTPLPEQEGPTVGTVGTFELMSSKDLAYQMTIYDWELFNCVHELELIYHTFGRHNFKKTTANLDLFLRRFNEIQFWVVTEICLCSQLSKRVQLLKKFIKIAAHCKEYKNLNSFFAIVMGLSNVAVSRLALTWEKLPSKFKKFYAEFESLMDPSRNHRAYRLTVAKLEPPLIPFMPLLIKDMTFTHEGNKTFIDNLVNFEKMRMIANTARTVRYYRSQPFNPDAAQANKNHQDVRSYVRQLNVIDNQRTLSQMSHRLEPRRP
- MEASUREMENT_NOTES: Confirmatory qHTS for antagonist of cAMP-regulated guanine nucleotide exchange factor 4 (EPAC2) (AID 1645885); also: % is scaled to controls: 0 for no effect and ±100 for the full control effect; nearly all actives have a fitted effect of over 25% in size
- PROTOCOL_CONDITIONS: EPAC2 Rap1B-BODIPY-GDP exchange fluorescence, biochemical; series mostly up to 114 µM
Inconclusive results are not listed. Activity calls are given as the source filed them. Calls follow the shape of the dose curve; as a rule, active = well fitted inhibition curve with a large enough effect; inconclusive = small, poorly fitted or top-dose-only effect; inactive = no such curve, though single readings can be large or run the other way.
READOUT_TYPE: activity change, negative = inhibition

Here is how some molecules turned out for activity change, negative = inhibition.
MOLECULE: COC(=O)c1cn(Cc2ccc(F)cc2)c2ccccc12
activity change, negative = inhibition: inactive

MOLECULE: CC(=O)C1C2c3ccccc3OC1(C)N=c1s/c(=C/c3cn(C)nc3C)c(=O)n12 (centres undefined)
activity change, negative = inhibition: inactive

MOLECULE: Nc1c(C(=O)Nc2ccc(Br)cc2F)sc2nc3c(cc12)N1CCC3CC1
activity change, negative = inhibition: -17.9% [at 12.7 µM] (inactive)

MOLECULE: Cc1ccccc1OCC(=O)N1CCN(CCc2ccccn2)CC1
activity change, negative = inhibition: 1.52% [at 12.7 µM] (inactive)

MOLECULE: Cn1ncnc2c(=O)n(C)c(=O)nc1-2
activity change, negative = inhibition: inactive

MOLECULE: O=C1c2ccccc2-c2cccc3cccc1c23
activity change, negative = inhibition: inactive

Entry O=C(O)CC1OCC=C2CN3CCC45C6=CC(=O)C(=O)C([N+](=O)[O-])=C6NC4C1C2CC35 (centres undefined) ; activity change, negative = inhibition = inactive

Entry Cc1ccc(-n2c(O)c(C=NCc3ccco3)c(=O)[nH]c2=S)cc1C ; activity change, negative = inhibition = inactive

Entry NS(=O)(=O)c1ccc(-c2ccc(C=C3C(=O)NC(=O)NC3=O)o2)cc1 ; activity change, negative = inhibition = inactive

Entry CC(c1ccccc1)(c1ccccc1)c1ccncc1 ; activity change, negative = inhibition = -28.4% [at 12.7 µM] (inactive)

Entry CN(C)CC(C(=O)Cc1ccccc1)c1ccccc1 (centres undefined) ; activity change, negative = inhibition = inactive

Origin of values: PubChem BioAssay (NCATS)
